test system: CAL-120; assay: normalised response (% of control), CellTiter-Glo; higher = more viable cells (100 = DMSO, 0 = benzethonium chloride kill control); conditions: incubation time: 72 h
READOUT: normalised response (%)
Your answer should be a plain number; it is taken to be in %.

For orientation, consider the following solved cases.
MOLECULE | MEASUREMENT UNIT | normalised response
C=CCNC1=C2C[C@@H](C)C[C@H](OC)[C@H](O)[C@@H](C)/C=C(\C)[C@H](OC(N)=O)[C@@H](OC)/C=C\C=C(/C)C(=O)NC(=CC1=O)C2=O [Tanespimycin] (1000 nM) | % | 51.8
C=CC[C@@H]1/C=C(\C)C[C@H](C)C[C@H](OC)[C@H]2O[C@@](O)(C(=O)C(=O)N3CCCC[C@H]3C(=O)O[C@H](/C(C)=C/[C@@H]3CC[C@@H](O)[C@H](OC)C3)[C@H](C)[C@@H](O)CC1=O)[C@H](C)C[C@@H]2OC [Tacrolimus] (10 nM) | % | 97.7
CO[C@H]1C[C@@H]2CC[C@@H](C)[C@@](O)(O2)C(=O)C(=O)N2CCCC[C@H]2C(=O)O[C@H]([C@H](C)C[C@@H]2CC[C@@H](OC(=O)C(C)(CO)CO)[C@H](OC)C2)CC(=O)[C@H](C)/C=C(\C)[C@@H](O)[C@@H](OC)C(=O)[C@H](C)C[C@H](C)/C=C/C=C/C=C/1C [Temsirolimus] (10 nM) | % | 67.8
CN(C)C/C=C/C(=O)Nc1cc2c(Nc3ccc(F)c(Cl)c3)ncnc2cc1O[C@H]1CCOC1 [Afatinib] (100 nM) | % | 92.9

Now consider a different molecule.
Request: normalised response for CN(C)C/C=C/C(=O)Nc1cc2c(Nc3ccc(F)c(Cl)c3)ncnc2cc1O[C@H]1CCOC1 [Afatinib] (1 nM) ?
Result: 94.4

* * *

Entries and their normalised response
tested on: MDA-MB-468; assay: normalised response (% of control), CellTox Green; higher = less cell death (100 = DMSO, 0 = benzethonium chloride kill control); settings: incubation time: 72 h
Please reply with the bare figure in % and do not write the unit itself.

COMPOUND | MEASUREMENT UNIT | normalised response
CN1CC[C@H](c2c(O)cc(O)c3c(=O)cc(-c4ccccc4Cl)oc23)[C@H](O)C1 [Alvocidib] (10000 nM) | % | 52.6

Request: Reported normalised response for CC(=O)O[C@]1(C(C)=O)CC[C@H]2[C@@H]3C=C(C)C4=CC(=O)CC[C@]4(C)[C@H]3CC[C@@]21C [Megestrol acetate] (10000 nM) : what is it?
Result: 176

Request: Any idea what normalised response was measured for OC[C@H]1O[C@@H](n2cnc3c2N=CNC[C@H]3O)C[C@@H]1O [Pentostatin] (1000 nM) ?
Result: 100

Request: Give its normalised response value. Item: C=CCNC1=C2C[C@@H](C)C[C@H](OC)[C@H](O)[C@@H](C)/C=C(\C)[C@H](OC(N)=O)[C@@H](OC)/C=C\C=C(/C)C(=O)NC(=CC1=O)C2=O [Tanespimycin] (10000 nM)
Result: 100

Request: Quick check: normalised response of N#CC[C@H](C1CCCC1)n1cc(-c2ncnc3[nH]ccc23)cn1 [Ruxolitinib] (10000 nM) ?
Result: 149

Request: Can you share its normalised response? I mean this compound: COc1cc(Nc2ncc3c(n2)-c2ccc(Cl)cc2C(c2c(F)cccc2OC)=NC3)ccc1C(=O)O [Alisertib] (1000 nM)
Result: 8.1

Request: Please report the recorded normalised response for C[C@]1(c2nc3c(C(N)=O)cccc3[nH]2)CCCN1 [Veliparib] (10000 nM) .
Result: 125

Request: Query (compound): Cc1c2oc3c(C)ccc(C(=O)N[C@@H]4C(=O)N[C@H](C(C)C)C(=O)N5CCC[C@H]5C(=O)N(C)CC(=O)N(C)[C@@H](C(C)C)C(=O)O[C@@H]4C)c3nc-2c(C(=O)N[C@@H]2C(=O)N[C@H](C(C)C)C(=O)N3CCC[C@H]3C(=O)N(C)CC(=O)N(C)[C@@H](C(C)C)C(=O)O[C@@H]2C)c(N)c1=O [Dactinomycin] (100 nM) ; field requested: normalised response
Result: 56.9

Request: What value of normalised response has been recorded for this entry: Nc1ccn([C@@H]2O[C@H](CO)[C@@H](O)[C@@H]2O)c(=O)n1 [Cytarabine] (10000 nM)
Result: 156

Request: Report normalised response for CN(C)C/C=C/C(=O)Nc1cc2c(Nc3ccc(F)c(Cl)c3)ncnc2cc1O[C@H]1CCOC1 [Afatinib] (1000 nM) please.
Result: 110

Request: What normalised response value was documented for this compound, CO[C@H]1C[C@@H]2CC[C@@H](C)[C@@](O)(O2)C(=O)C(=O)N2CCCC[C@H]2C(=O)O[C@H]([C@H](C)C[C@@H]2CC[C@@H](OC(=O)C(C)(CO)CO)[C@H](OC)C2)CC(=O)[C@H](C)/C=C(\C)[C@@H](O)[C@@H](OC)C(=O)[C@H](C)C[C@H](C)/C=C/C=C/C=C/1C [Temsirolimus] (1 nM) ?
Result: 135
